- target or test system: VEGFR2 (Homo sapiens (Human))
- Sequence (P35968 20-1356): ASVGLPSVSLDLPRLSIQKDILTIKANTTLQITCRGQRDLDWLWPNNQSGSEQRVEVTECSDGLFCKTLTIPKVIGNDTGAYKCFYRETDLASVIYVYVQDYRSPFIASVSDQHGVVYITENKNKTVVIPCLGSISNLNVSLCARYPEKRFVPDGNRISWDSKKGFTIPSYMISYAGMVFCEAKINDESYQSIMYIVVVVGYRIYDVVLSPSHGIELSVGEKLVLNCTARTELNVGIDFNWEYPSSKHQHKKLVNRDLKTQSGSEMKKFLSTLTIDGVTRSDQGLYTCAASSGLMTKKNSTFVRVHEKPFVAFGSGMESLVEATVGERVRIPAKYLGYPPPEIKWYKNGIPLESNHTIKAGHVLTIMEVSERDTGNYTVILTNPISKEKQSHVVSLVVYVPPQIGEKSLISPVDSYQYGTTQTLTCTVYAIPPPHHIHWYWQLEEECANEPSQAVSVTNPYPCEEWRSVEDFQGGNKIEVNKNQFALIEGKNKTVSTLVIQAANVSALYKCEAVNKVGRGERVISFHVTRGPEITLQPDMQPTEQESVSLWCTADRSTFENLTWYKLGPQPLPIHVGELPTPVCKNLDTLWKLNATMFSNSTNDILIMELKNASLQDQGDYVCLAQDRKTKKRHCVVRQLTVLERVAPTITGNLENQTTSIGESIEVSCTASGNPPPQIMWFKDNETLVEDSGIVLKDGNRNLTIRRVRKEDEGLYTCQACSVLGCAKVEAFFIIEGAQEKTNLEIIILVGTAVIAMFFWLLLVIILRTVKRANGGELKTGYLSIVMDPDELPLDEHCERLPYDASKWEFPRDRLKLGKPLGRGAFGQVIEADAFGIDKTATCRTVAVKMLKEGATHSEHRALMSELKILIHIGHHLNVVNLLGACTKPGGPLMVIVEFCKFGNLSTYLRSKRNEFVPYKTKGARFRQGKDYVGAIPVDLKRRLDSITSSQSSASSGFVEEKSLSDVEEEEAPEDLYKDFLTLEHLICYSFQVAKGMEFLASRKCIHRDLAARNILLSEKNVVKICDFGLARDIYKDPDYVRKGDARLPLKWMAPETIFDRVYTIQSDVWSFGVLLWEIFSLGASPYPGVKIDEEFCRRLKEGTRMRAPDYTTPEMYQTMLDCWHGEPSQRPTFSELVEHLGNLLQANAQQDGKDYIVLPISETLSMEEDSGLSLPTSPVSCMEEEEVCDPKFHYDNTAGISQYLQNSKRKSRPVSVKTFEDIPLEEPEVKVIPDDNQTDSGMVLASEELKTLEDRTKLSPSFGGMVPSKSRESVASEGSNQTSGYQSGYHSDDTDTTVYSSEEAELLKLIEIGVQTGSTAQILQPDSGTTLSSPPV
- assay summary: VEGFR2 Cellular Assay (VEGF induced intracellular calcium, FLIPR, HUVEC)
- Type: cell-based
- assay context: VEGF165 stimulation (10 ng/mL)
- Description: VEGFR2 Cellular Assay Automated FLIPR (Fluorometric Imaging Plate Reader) technology was used to screen for inhibitors of VEGF induced increases in intracellular calcium levels in fluorescent dye loaded endothelial cells. […] Changes in fluorescence at 516 nm were measured simultaneously in all 384 wells using a cooled CCD camera. Data were generated by determining max-min fluorescence levels for unstimulated, stimulated, and drug treated samples. […]

compound: COC(=O)CCCCS(C)(=O)=NC(=O)c1cnc(N)c(C#Cc2cccc(C(=O)Nc3cccc(C)c3)c2)c1 (stereo not shown)
IC50 [nM]: 2
//
compound: Cc1ccoc1C(=O)Nc1cccc(C#Cc2cc(C(=O)N=S3(=O)CCCC3)cnc2N)c1
IC50 [nM]: 2
//
compound: COC(=O)CCCCS(C)(=O)=NC(=O)c1cnc(N)c(C#Cc2cccc(NC(=O)c3cccc(OC)c3)c2)c1 (stereo not shown)
IC50 [nM]: 1
//
compound: CS(C)(=O)=NC(=O)c1cncc(C#Cc2cccc(NC(=O)Nc3ccccc3F)c2)c1
IC50 [nM]: 48
//
compound: COC(=O)CCCCS(C)(=O)=NC(=O)c1cnc(N)c(C#Cc2cccc(NC(=O)c3cc(C(F)(F)F)ccc3F)c2)c1 (stereo not shown)
IC50 [nM]: 1
//
compound: COC(=O)CCCCS(C)(=O)=NC(=O)c1cnc(N)c(C#Cc2cccc(NC(=O)c3occc3C)c2)c1 (stereo not shown)
IC50 [nM]: 1
//
compound: Cc1cccc(NC(=O)Nc2cccc(C#Cc3cncc(C(=O)N=S(C)(C)=O)c3)c2)c1
IC50 [nM]: 11
//
compound: COC(=O)CCCC[S@@](C)(=O)=NC(=O)c1cnc(N)c(C#Cc2cccc(NC(=O)c3occc3C)c2)c1
IC50 [nM]: 1
//
compound: Cc1ccoc1C(=O)Nc1cccc(C#Cc2cncc(C(=O)N=S3(=O)CCCC3)c2)c1
IC50 [nM]: 3
//
compound: COC(=O)CCCCS(C)(=O)=NC(=O)c1cnc(N)c(C#Cc2cccc(NC(=O)c3ccc(OC)c(OC)c3)c2)c1 (stereo not shown)
IC50 [nM]: 4

====

- target or test system: VEGFR2 (Homo sapiens (Human))
- assay summary: VEGFR2 Cellular Assay (VEGF induced intracellular calcium, FLIPR, HUVEC)
- Type: cell-based
- assay context: VEGF165 stimulation (10 ng/mL)
readout type: IC50 (nM)

compound: Cc1ccoc1C(=O)Nc1cccc(C#Cc2cc(C(=O)N=S(C)(=O)CCCCC(=O)O)cnc2N)c1 (stereo not shown) [Example 24]
readout type: IC50
unit of measure: nM
value reported: 46
--
compound: COC(=O)CCCCS(C)(=O)=NC(=O)c1cnc(N)c(C#Cc2cccc(NC(=O)c3ccc(Cl)c(C(F)(F)F)c3)c2)c1 (stereo not shown) [Example 29]
readout type: IC50
unit of measure: nM
value reported: 6
--
compound: COC(=O)CCCCS(C)(=O)=NC(=O)c1cnc(N)c(C#Cc2cccc(NC(=O)c3cccc(C)c3)c2)c1 (stereo not shown) [Example 26]
readout type: IC50
unit of measure: nM
value reported: 1
--
compound: CS(C)(=O)=NC(=O)c1cnc(N)c(C#Cc2cccc(NC(=O)c3ccc(Cl)cc3)c2)c1 [Example 5]
readout type: IC50
unit of measure: nM
value reported: 9
--
compound: COC(=O)CCCCS(C)(=O)=NC(=O)c1cnc(N)c(C#Cc2cccc(NC(=O)c3cccc(C(F)(F)F)c3)c2)c1 (stereo not shown) [Example 28]
readout type: IC50
unit of measure: nM
value reported: 4
--
compound: Cn1ccnc1C(=O)Nc1cccc(C#Cc2cc(C(=O)N=S(C)(C)=O)cnc2N)c1 [Example 7]
readout type: IC50
unit of measure: nM
value reported: 51
--
compound: Cc1ccc(NC(=O)Nc2cccc(C#Cc3cncc(C(=O)N=S(C)(C)=O)c3)c2)cc1 [Example 11]
readout type: IC50
unit of measure: nM
value reported: 15
